target system: pooled human liver microsome (HLM) preparations (Homo sapiens, UniProt Q02928)
Sequence (Q02928 5-519): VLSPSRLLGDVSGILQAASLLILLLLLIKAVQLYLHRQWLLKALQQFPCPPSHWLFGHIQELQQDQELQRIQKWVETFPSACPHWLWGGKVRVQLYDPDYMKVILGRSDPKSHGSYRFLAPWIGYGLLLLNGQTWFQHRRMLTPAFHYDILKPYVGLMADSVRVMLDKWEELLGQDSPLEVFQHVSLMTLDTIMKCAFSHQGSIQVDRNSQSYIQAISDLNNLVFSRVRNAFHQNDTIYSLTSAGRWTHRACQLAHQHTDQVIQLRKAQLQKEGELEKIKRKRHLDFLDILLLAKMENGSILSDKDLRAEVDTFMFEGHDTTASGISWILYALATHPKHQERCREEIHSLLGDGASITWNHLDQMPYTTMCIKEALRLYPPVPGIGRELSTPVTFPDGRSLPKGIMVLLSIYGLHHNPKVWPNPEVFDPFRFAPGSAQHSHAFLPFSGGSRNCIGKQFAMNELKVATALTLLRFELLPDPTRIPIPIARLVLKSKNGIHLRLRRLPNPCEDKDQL
experiment notes: Inhibition of MONACRA demethylation in pooled HLM preparations
Assay type: biochemical
condition: HLM sample WGP; 150 µM MONACRA; unit not given (µM)
experimental readout: IC50 (µM)
Reply numerically in µM, unit not repeated.

Recorded IC50 for `CC(/C=C1\SC(=S)N(CC(=O)O)C1=O)=C\c1ccccc1` , please?
2.14

###

target system: pooled human liver microsome (HLM) preparations (Homo sapiens, UniProt Q02928)
experiment notes: Inhibition of MONACRA demethylation in pooled HLM preparations
Format: biochemical
condition: all studied HLM samples (six preparations); 150 µM MONACRA
experimental readout: pIC50
Formally, pIC50 is defined as -log10 of the concentration c, with c in mol/L.

Recorded pIC50 for `CC(/C=C1\SC(=S)N(CC(=O)O)C1=O)=C\c1ccccc1` , please?
5.52
